Hi there, I'd appreciate the recorded apparent KD of MS2 coat protein for every entry that follows.
Test system: MS2 coat protein
Assay: apparent KD of MS2 coat protein; higher = weaker reporter binding
Settings: Eterna round: R107; input ligand: theophylline 2 mM
Answer format: numeric, nM implied, no suffix.

Ask: Note down apparent KD of MS2 coat protein recorded for UGCCGAGACGUGGAUUACCCGUGUACCGAAGGAGCGCCCGAAAGGGCAGGUAGGUCGCGGAGGACAUGAGGAUCACCCAUGUUUA
Result: 79.8

Ask: Note down apparent KD of MS2 coat protein recorded for GAAGAGACCUCGGCCGCCACUCGCCAUGAGGAUCUCCCAUGUAACAUGAGGAUCACCCAUGUACAGAGGACCGGGAGGUCCUAGU [Same State Tryptophan B GF 14]
Result: 24.8

Ask: Note down apparent KD of MS2 coat protein recorded for UGUAUGGACUGAAGGAGCGGGUUGAUAACUUGAGGAUCACCCAGGUAAAAGGCGAAAGCCACCCAGGUAGGUCGCAGUCCAUACU
Result: 69.2

----------
Tested on: MS2 coat protein
Test: apparent KD of MS2 coat protein; designed switch direction (-1 OFF switch, 1 ON switch): -1; higher = weaker reporter binding
Conditions: input ligand: FMN 200 uM
property_measured: apparent KD of MS2 coat protein (nM)
Answer format: numeric, nM implied, no suffix.

Ask: Note down apparent KD of MS2 coat protein recorded for UUGGUGUCAGGAUAUGCUUAAUGUGUUUUAUUAUAAUAUAUACAUGAGGAUCACCCAUGUAGAAGGGACAUUGU [LRO-Excl2-09-Fireball XL5] (Eterna round: R97, puzzle: Exclusion 2)
Result: 48

Ask: Note down apparent KD of MS2 coat protein recorded for CACCUGAGAGGAUAUACGUUGAUGUUAUGCUAUGGAAAGUUACAUGAGGAUCACCCAUGUAGAAGGCUCAGGUA [Eternabot (L2) Solution 48] (Eterna round: R97, puzzle: Exclusion 2)
Result: 75.4

Ask: Note down apparent KD of MS2 coat protein recorded for AGAUAUAGAGGAUAUUUGCGGGAACACAUGAGGAUCACCCAUGUCGAAUAGACGCCCUAUAAAGAAGGCUAGACUG [Eternabot (L2) Solution 86] (Eterna round: R97, puzzle: Exclusion 5)
Result: 15.7

Ask: Note down apparent KD of MS2 coat protein recorded for GUCGUGCAGCUUUGCUGUACGAGUACAUGAGGAUCACCCAUGUAGGAUAUGGUACGCUUUGCGUGCCAGAAGGACGUGCGUUAG [salish99_ExNG3_r04_001] (Eterna round: R96, puzzle: Exclusion NG 3)
Result: 53.3

Ask: Note down apparent KD of MS2 coat protein recorded for ACAUGUAAUGCAGGAUAUGGGACACAUGAGGAUCACCCAUGUGACCAUAUGUAAUGCUAAGAGUCUCAGAAGGGUAUGUACAUG [Ex NG2 #46] (Eterna round: R96, puzzle: Exclusion NG 2)
Result: 15.2

Ask: Note down apparent KD of MS2 coat protein recorded for ACAUGAGGAUCACCCAUGUCGGGCUGGUCCGCUCCGGCUGUUGAGGAUAUAGCCCGGUAUCCGCGCUAGAAGGUGAGGGCCGGC [Aenatbe mod 29] (Eterna round: R96, puzzle: Exclusion NG 3)
Result: 35.6

Ask: Note down apparent KD of MS2 coat protein recorded for CAUGUCCAACGAGGAUAUGGGACAGGAAGUGUACCAGAAGGCGUACGGACAUGAGGAUCACCCAUGUCGCGCGGUGCGAUGUGG [MOD Nando EXNG 1.1] (Eterna round: R96, puzzle: Exclusion NG 1)
Result: 47

Ask: Note down apparent KD of MS2 coat protein recorded for CAAUAACAAGCGAGAUCCUACAUGAGGAUCACCCAUGUGCUCGUCUUAUAAGGUACUGUGACGAUAGUCACGGUACC [Mat - Sensor, turn-off var - Eli Mod - D97] (Eterna round: R97, puzzle: Sensor, turn-off variant 1)
Result: 18.9

Ask: Note down apparent KD of MS2 coat protein recorded for AACUCACAUGAGGAUCACCCAUGUGAGGAUAUGGUUUCGCUGGCCGUAGCCAGUGGAACCAGAAGGCGCGUGAU [Mat - Exclusion 1 - JL Mod - D26] (Eterna round: R97, puzzle: Exclusion 1)
Result: 52.4
